Hey, just so you know, these numbers are from ChEMBL document CHEMBL1138530.

RUN_DESCRIPTION: Half life in po dosed human
Format: ADME, organism-based
EXPERIMENTAL_SETUP: in vivo

LINE_NOTATION	half-life
C=C(C)[C@@H]1CC[C@]2(C(=O)O)CC[C@]3(C)[C@H](CC[C@@H]4[C@@]5(C)CC[C@H](OC(=O)CC(C)(C)C(=O)O)C(C)(C)[C@@H]5CC[C@]43C)[C@@H]12	55 h

* * *

RUN_DESCRIPTION: Half life in HIV1 infected human at 250 mg, po
Assay type: ADME, organism-based
EXPERIMENTAL_SETUP: in vivo

LINE_NOTATION	half-life (h)
C=C(C)[C@@H]1CC[C@]2(C(=O)O)CC[C@]3(C)[C@H](CC[C@@H]4[C@@]5(C)CC[C@H](OC(=O)CC(C)(C)C(=O)O)C(C)(C)[C@@H]5CC[C@]43C)[C@@H]12	62.1

* * *

RUN_DESCRIPTION: Half life in HIV1 infected human at 75 mg, po
Type: ADME, organism-based
EXPERIMENTAL_SETUP: in vivo
ENDPOINT: half-life (h)

LINE_NOTATION	ENDPOINT	RESULT_UNIT	REPORTED
C=C(C)[C@@H]1CC[C@]2(C(=O)O)CC[C@]3(C)[C@H](CC[C@@H]4[C@@]5(C)CC[C@H](OC(=O)CC(C)(C)C(=O)O)C(C)(C)[C@@H]5CC[C@]43C)[C@@H]12	half-life	h	63.9

* * *

RUN_DESCRIPTION: Half life in HIV1 infected human at 150 mg, po
Assay type: ADME, organism-based
EXPERIMENTAL_SETUP: in vivo
ENDPOINT: half-life

LINE_NOTATION	REPORTED
C=C(C)[C@@H]1CC[C@]2(C(=O)O)CC[C@]3(C)[C@H](CC[C@@H]4[C@@]5(C)CC[C@H](OC(=O)CC(C)(C)C(=O)O)C(C)(C)[C@@H]5CC[C@]43C)[C@@H]12	55.1 h

* * *

RUN_DESCRIPTION: Apparent oral clearance in HIV1 infected human at 150 mg, po
Type: ADME, organism-based
EXPERIMENTAL_SETUP: in vivo

LINE_NOTATION	CL/F (mL/min)
C=C(C)[C@@H]1CC[C@]2(C(=O)O)CC[C@]3(C)[C@H](CC[C@@H]4[C@@]5(C)CC[C@H](OC(=O)CC(C)(C)C(=O)O)C(C)(C)[C@@H]5CC[C@]43C)[C@@H]12	2.67

* * *

RUN_DESCRIPTION: Apparent oral clearance in HIV1 infected human at 75 mg, po
Type: ADME, organism-based
EXPERIMENTAL_SETUP: in vivo

LINE_NOTATION	CL/F (mL/min)
C=C(C)[C@@H]1CC[C@]2(C(=O)O)CC[C@]3(C)[C@H](CC[C@@H]4[C@@]5(C)CC[C@H](OC(=O)CC(C)(C)C(=O)O)C(C)(C)[C@@H]5CC[C@]43C)[C@@H]12	2.83
